We begin with a simple list: items and their reported MCV.
Species on record: Rattus norvegicus
Assay: Open TG-GATES - Regimen: Single
Type: toxicity, organism-based, Sprague-Dawley
Set-up: regimen Single, gender Male, age 6 weeks
Details: in vivo, po, 10 mg/kg, 24 h, tissue Blood, route gavage, dose level Low
endpointLabel: MCV (fL)

> print(dat)
                                entrysmiles  endpointlabel  unittag  valuemeasured
1  CC1=C(/C=C/C(C)=C/C=C/C(C)=C/CO)C(C)(C)CCC1            MCV       fL           62.2
2                CN(C)CCN(Cc1cccs1)c1ccccn1            MCV       fL           65.8
3         CN(C)CCCN1c2ccccc2CCc2ccc(Cl)cc21            MCV       fL             65
4             CN(C)CCCN1c2ccccc2CCc2ccccc21            MCV       fL           65.1
